Origin of values: the domain aggregation screens of Martell et al. (2025)

Each entry below carries its recorded soluble fraction (log2).
test: soluble fraction after stress (log2 fold change); higher = more stays soluble; pooled small domains, quantitative proteomics; conditions: stress: 50 degC
READOUT_LABEL: soluble fraction (log2)

RECORD_SEQUENCE | READOUT_LABEL | VALUE_REPORTED
HMVSVEINTVERDETFRKMFTSGWKPENRIQALAVEQAKKNGLGRMSEVAGLASFRGIWKQATEQVALEA | soluble fraction (log2) | -0.12
HMTELIEDYVELIGDLIRHRGEARAADIANRMAVSQATVSKMIRRLNELGLVTSKPYRSLFLTDEGQKMAE | soluble fraction (log2) | -0.474
HMLDEKFLSELMLALLRNHRRGLRAEVLLHKVRSNMELDGYKSLLVGVGRMEMWELAREIIDFVKAEG | soluble fraction (log2) | -4.4
HMDYEVPEELEEKFSENPQFKEAFDNLTPGRQHQYIYHISQAKRSQTRINRIEKYYEHILNGKGMQD | soluble fraction (log2) | 0.0659
HMQILVEGVEANQRLDLFLRARLTEFSRSRIQGLVKNGNVLVNGNIARQAYLVQVGDKIELDVPEPVA | soluble fraction (log2) | -0.487
HMSNLNHSFQYKKNIGRKISLTYLGRDNESISKIYELIDSNDSGILVKNKNVEIFIHYEKIVSAKIKVS | soluble fraction (log2) | -0.943
HMDNIKRGEMFYISRGGASYSGSEQHSDRPAVVVSNDKNNENSNVVEVVYMTTQPKTDLPTHVTVR | soluble fraction (log2) | 0.0894
HMTPFLVRVDISDLNIRTGAGTNYSRTGQYTGKGIFTILEVKSGQGSDAGWGRLKSGAGWISLDYTTR | soluble fraction (log2) | -2.82
HMGVTGYPNPTREHITWDDARRIEVWNAYGVPVADLRFARGVLDVAGWPVGTYVARIDGGRSVRFVVI | soluble fraction (log2) | -0.19
HMEVSLEDKMDYLTNYATTHKNFSFRNLLESSSGKIEVIVTFLAILELMKMGRINISQEHIFDDIIIESRI | soluble fraction (log2) | -2.53
HMTIGLLISKARTNSGLTQAELATRAGTSQAAIARYESDRVSPSVSTLERVLRAAGEELVISSS | soluble fraction (log2) | -0.0977
HMATEPLQPRVEVLGSTLATTNGARIVGVYDMSGREVSATQLSKGVYIVKVTNGSVTATQKVFI | soluble fraction (log2) | 0.112
HMNGLNISYRMDGENVVETIVFPDATMIRTIAPNGVMTIKTIEDGSVSTSELKADYKLYKKIYESQY | soluble fraction (log2) | -0.262
HMTDSQLVEAENHVALRQAMAHLGPRERELIGLYYFEEQSQTQIAARFGVSQMQVSRWLTSAVGRIRGQMA | soluble fraction (log2) | -0.00256
HMKTLPADPTVKNFSYTVVDGEIYYRENSIMTQIELSDNAKGRVAGMVELRQIVNELIDQQLND | soluble fraction (log2) | -0.896
HMKFHENLIALRRREGWSQEELGNRIGVTRQTVSKWELGLTTPELEKLVQLADVFGMTTDQLVGR | soluble fraction (log2) | -0.146
HMEFQEQLYRLRKQAGLSQEELSHIIGVSRQAVQKWEAGSARPDLDNLIALASHFKLSLDQLVGLT | soluble fraction (log2) | -0.555
HMDGTVRGKTTFQELLDWGVPQERIEAVLGGPIPAPGVVIKDYVTAQGKEFSAVRDALQAEVDAVLK | soluble fraction (log2) | 0.232
HMHLYDMYNLTEKEISIIRLIANGLNNKEISQELFLSEGTIKNNITNILAKLELRDRTQLAIFAFKNKIVI | soluble fraction (log2) | -0.484
HMGQAEEVRYSTFLDEVRNGRIEQVVLQGEHIIGTRKDKTVFSVFNPETDYTALIGTLSKSGVTIEGRP | soluble fraction (log2) | 0.081
HMTAVVPNFKGKLISELSNFVADKNVRYTIIDSIYDPEEKSGIVIKQDPEEKTQVKHNRIIYLYVTST | soluble fraction (log2) | -1.53
HMTKDYVVIYEGLAQTEAVEILGKLQEMGVSAKVDHNDSILVLKDEEDQIRMALATEGYPKS | soluble fraction (log2) | -0.0917
HMATAPQIRAIYALGSKLGINQNSREDNLHQLVYSITGKESIKGLTNYEAARVQSELANMERK | soluble fraction (log2) | 0.22
HMDLRVKRTNKMIMEAFIHLVEQKGYDNITVQEIADEAMINRATFYAHFKDKQDLYDHIFKQAI | soluble fraction (log2) | -0.762
HMYSMSAPMPGVILEIKVAPGDQVNKGDVVMVLEAMKMKNDLHAARTGTVESIDINSGEQVKYGQVLLRFV | soluble fraction (log2) | -0.14
HMGDTHKVPGVKGVNVEQAMDMLSRLDLKAVVIDSVYVKDKKLGTVIEQNPVEGSVVKPGRPIYLVVNSRS | soluble fraction (log2) | 0.242
HMTQLEVDLFERLITISGVGPRLALAVLSGLEPPDLLRAIQDSDIVRLQGIPGVGKKTAERISLELKDKLS | soluble fraction (log2) | -0.963
HMGSTATVIASRLNMRASASTTGALLTKIPNGATVTVLGTTGAWSHIRYGSYTGYVMSQYLRING | soluble fraction (log2) | -0.203
HMGSTVRIVVPAADIPAYKDIQPSDLEYREVPKDEISEDAVTDPQEVINKYSTSPLYAGWPINKNIIET | soluble fraction (log2) | 0.0298
